# TESTED_ON: human Famesoid X receptor ligand-binding domain/Gal4 DNA binding domain chimera (Homo sapiens (Human), UniProt Q96RI1)
# Sequence (Q96RI1 262-486, change not shown): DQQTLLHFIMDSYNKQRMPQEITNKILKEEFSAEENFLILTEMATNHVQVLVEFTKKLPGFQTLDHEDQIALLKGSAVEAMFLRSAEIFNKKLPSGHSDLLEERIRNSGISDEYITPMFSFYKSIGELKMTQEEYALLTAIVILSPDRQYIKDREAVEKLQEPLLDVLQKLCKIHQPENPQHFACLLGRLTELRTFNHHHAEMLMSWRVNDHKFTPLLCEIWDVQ
# RUN_DESCRIPTION: Cellular FXR beta-lactamase reporter assay (FXR-UAS-bla HEK 293T)
# Assay type: cell-based
# APPLIED_CONDITIONS: HEK-293T; read-out: % Efficacy

{"MOLECULE": "Cc1onc(-c2c(Cl)cccc2Cl)c1C(=O)O[C@H]1C[C@H]2CC[C@@H](C1)N2c1nc2c(F)cc(C(=O)O)cc2s1 [Compound I-23]", "Emax, %": 100}
{"MOLECULE": "O=C(Cc1c(-c2c(Cl)cccc2Cl)noc1C1CC1)O[C@H]1C[C@H]2CC[C@@H](C1)N2c1nc2c(F)cc(C(=O)O)cc2s1 [Compound I-32]", "Emax, %": 86}
{"MOLECULE": "CC1(c2onc(-c3c(Cl)cccc3Cl)c2C(=O)OC2C[C@H]3CC[C@@H](C2)N3c2nc3c(F)cc(C(=O)O)cc3s2)CC1 (single isomer, unassigned) [Compound I-26]", "Emax, %": 106}
{"MOLECULE": "O=C(O)c1cc(F)c2nc(N3[C@@H]4CC[C@H]3C[C@@H](OC(=O)c3c(-c5c(F)cccc5F)noc3C3CC3)C4)sc2c1 [Compound I-16]", "Emax, %": 110}
{"MOLECULE": "O=C(O)c1cc(F)c2nc(N3[C@@H]4CC[C@H]3C[C@@H](OC(=O)c3c(-c5ccccc5OC(F)(F)F)noc3C3CC3)C4)sc2c1 [Compound I-14]", "Emax, %": 116}
{"MOLECULE": "O=C(O)c1cc(F)c2nc(N3[C@@H]4CC[C@H]3C[C@@H](OC(=O)c3c(-c5c(Cl)cccc5Cl)noc3C3CCC3)C4)sc2c1 [Compound I-24]", "Emax, %": 98}

* * *

# TESTED_ON: human Famesoid X receptor ligand-binding domain/Gal4 DNA binding domain chimera (Homo sapiens (Human), UniProt Q96RI1)
# RUN_DESCRIPTION: Cellular FXR beta-lactamase reporter assay (FXR-UAS-bla HEK 293T)
# Format: cell-based
# APPLIED_CONDITIONS: read-out: FXR pEC50 (converted)
Below, each entry is listed with its recorded EC50.
REPORTED_METRIC: EC50 (µM)

{"COMPOUND": "O=C(O)c1cc(F)c2nc(N3[C@@H]4CC[C@H]3C[C@@H](OC(=O)c3c(-c5ccccc5OC(F)(F)F)noc3C3CC3)C4)sc2c1", "ASSAY_RESULT": 0.00794}
{"COMPOUND": "O=C(O)c1cc(F)c2nc(N3[C@@H]4CC[C@H]3C[C@@H](OC(=O)c3c(C5CCC6(CC5)CC6)noc3C3CC3)C4)sc2c1", "ASSAY_RESULT": 0.158}
{"COMPOUND": "O=C(O)c1cc(F)c2nc(N3[C@@H]4CC[C@H]3C[C@@H](OC(=O)c3c(-c5ccccc5)noc3C3CC3)C4)sc2c1", "ASSAY_RESULT": 1}
{"COMPOUND": "O=C(O)c1cc(F)c2nc(N3[C@@H]4CC[C@H]3C[C@@H](OC(=O)c3c(-c5c(F)cccc5F)noc3C3CC3)C4)sc2c1", "ASSAY_RESULT": 0.2}
{"COMPOUND": "CC1(c2onc(-c3c(Cl)cccc3Cl)c2C(=O)OC2C[C@H]3CC[C@@H](C2)N3c2nc3c(F)cc(C(=O)O)cc3s2)CC1 (single isomer, unassigned)", "ASSAY_RESULT": 0.0316}
{"COMPOUND": "Cc1onc(-c2c(Cl)cccc2Cl)c1C(=O)O[C@H]1C[C@H]2CC[C@@H](C1)N2c1nc2c(F)cc(C(=O)O)cc2s1", "ASSAY_RESULT": 0.158}
